assay: NCI Yeast Anticancer Drug Screen. Data for the mlh1 rad18 strain (AID 175); conditions: S. cerevisiae mlh1 rad18 strain growth inhibition; at 50.0 µM; stronger effect = higher value
About 79,000 compounds went through this panel and 15% of them were active in at least one assay; those are over-represented in the sample as a whole.
# Lookup of reported growth inhibition keyed by entry
Report the value in % with no unit label.

{"columns": ["COMPOUND", "UNIT_ABBREV", "RECORDED_RESULT"],
 "data": [
  ["O=C(Nc1nccs1)c1c(O)nc2sccn2c1=O", "%", -12.6],
  ["CC12CCC(=O)C=C1CCC1C2C(=O)CC2(C)C1CCC2(O)C(=O)Cn1cc(F)c(=O)[nH]c1=O (configuration not stated)", "%", 6.5],
  ["CC(=O)Nc1ccc(CCNC(=O)c2ccc3ccccc3c2O)cc1", "%", -13.4],
  ["O=C1C(=O)c2ccccc2C(O)=C1CC=C(Cl)Cl", "%", -33.6],
  ["[N-]=[N+]=C(C(=O)N1CCCC1=O)S(=O)(=O)c1ccccc1", "%", 2.45]
]}

Recorded growth inhibition for S=C(Cc1ccccc1)Nc1ccccc1 , please? 3.3

Recorded growth inhibition for C[N+](C)(C)CBr , please? -37.2

====

# Lookup of reported growth inhibition keyed by entry
test: NCI Yeast Anticancer Drug Screen. Data for the rad50 strain (AID 155);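 note: 0% = growth of vehicle-only cultures of the same strain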; conditions: S. cerevisiae rad50 strain growth inhibition; at 50.0 µM; stronger effect = higher value
The panel holds about 79,000 compounds, 15% with a hit somewhere; the sample as a whole holds those more often.
Report the value in % with no unit label.

Example cases with answers are listed next.
{"columns": ["MOLECULE", "RECORDED_RESULT"],
 "data": [
  ["CC(=O)NNc1nc(C)c(C(/C=C/c2ccc(/C=C/C(=N\\NC(=O)c3ccncc3)c3sc(NNC(C)=O)nc3C)cc2)=N/NC(=O)c2ccncc2)s1", -16.6],
  ["COc1ccc2[nH]c3c4c(ccc3c2c1)C(=O)C=CC4=O", 19.8],
  ["CC1OC2CC(O)C1(O)C1=C2C(O)=C(C(N)=O)C(=N)C1=O (stereo unspecified)", 12.3],
  ["CC1CC(=O)C(CC(=O)O)[C@H]1C(C(=O)C(=O)Nc1cc(Cl)ccc1Cl)[N+](=O)[O-] (stereo partly specified)", 1.45]
]}

Recorded growth inhibition for COc1ccc2c(c1)CCc1cc(OC)ccc1/[N+]([O-])=[N+]\2[O-] , please? -1.2

Recorded growth inhibition for CC(CC(=O)Nc1ccccc1)C(=O)O (stereo unspecified) , please? 7.85

Recorded growth inhibition for COc1ccc(-n2[nH]c3c(cnc4ccccc43)c2=O)cc1 , please? 6.35

Recorded growth inhibition for O=C(c1ccc(Cl)cc1)c1cc([N+](=O)[O-])cc([N+](=O)[O-])c1 , please? -0.35

Recorded growth inhibition for CCCCCCCCCCC/C=N\[N+](C)(C)C , please? 98.3

====

assay: NCI Yeast Anticancer Drug Screen. Data for the mec2-1 strain (AID 157); details: S. cerevisiae mec2-1 strain, at 50.0 µM, stronger effect = higher value
The panel holds about 79,000 compounds, 15% with a hit somewhere; the sample as a whole holds those more often.
# Lookup of reported growth inhibition keyed by entry
Report the value in % with no unit label.

Example cases with answers are listed next.
{"columns": ["COMPOUND", "METRIC", "RECORDED_RESULT"],
 "data": [
  ["[Cl][Pt+2][Cl].[NH-]c1ccc(CC(=O)O)cc1[NH-]", "growth inhibition", 7.1],
  ["CC1(C)CC(=O)NC1=O", "growth inhibition", 2],
  ["C[N+](C)(C)C/C=C/C[N+](C)(C)C", "growth inhibition", -3.1],
  ["CCN(CC)/[N+]([O-])=N/O", "growth inhibition", -14.8]
]}

Recorded growth inhibition for Cc1nc(Cl)nc2c1C(=O)Nc1ccccc1N2 , please? 14.4

Recorded growth inhibition for COc1ccc(CCN=Cc2ccc(Cl)cc2)cc1OC , please? -28.4

Recorded growth inhibition for Cc1c(C)c(C)c(CN2CCC(C)CC2)c(C)c1C , please? 9.85

Recorded growth inhibition for CC(C)c1cccc(C(C)C)c1NC1=CC(=O)C(=O)c2ccccc21 , please? 14.4

Recorded growth inhibition for COC(=O)C(C(=O)C(=O)Nc1c(Cl)cc([N+](=O)[O-])cc1Cl)c1nc2cc(C)c(C)cc2[nH]c1=O (stereo unspecified) , please? 3.1

Recorded growth inhibition for C=C(CBr)CCCOCc1ccccc1 , please? -7.25

Recorded growth inhibition for COC1=NO[C@@H]2C=CO[C@H]12 , please? -13.2

// provenance: PubChem BioAssay (NCI)
